Origin of the recorded values: patent US20090192298A1

Items are presented alongside their recorded F.
- PROCEDURE DETAILS: Spectral properties (absorbance, fluorescence, quantum yield) of sulfonated BODIPY dyes 6, Table 1
- Type: physicochemical
- ASSAY CONDITIONS: solvent MeOH; Fluorescein in 0.1M NaOH as standard
PROPERTY MEASURED: F

* Cc1cc(C)n2c1C=C1C(=O)N(C)C(c3ccc(I)cc3)=[N+]1[B-]2(F)F [6c] | 0.86
* CC1=[N+]2C(=Cc3c(C)cc(C)n3[B-]2(F)F)C(=O)N1C [6a] | 0.89
* Cc1cc(C)n2c1C=C1C(=O)N(C)C(c3ccc([N+](=O)[O-])cc3)=[N+]1[B-]2(F)F [6f] | 0.0004
* Cc1cc(C)n2c1C=C1C(=O)NC(c3ccccc3)=[N+]1[B-]2(F)F [6e] | 0.80
* Cc1c(S(=O)(=O)O)c(C)n2c1C=C1C(=O)N(C)C(c3ccc(C#CCCCC(=O)O)cc3)=[N+]1[B-]2(F)F [6h] | 0.84
* COc1ccc(C2=[N+]3C(=Cc4c(C)cc(C)n4[B-]3(F)F)C(=O)N2C)cc1 [6d] | 0.85
* Cc1c(S(=O)(=O)[O-])c(C)n2c1C=C1C(=O)N(C)C(c3ccc(I)cc3)=[N+]1[B-]2(F)F.[Na+] [6g] | 0.88
* Cc1cc(C)n2c1C=C1C(=O)N(C)C(c3ccccc3)=[N+]1[B-]2(F)F [6b] | 0.87

* * *

- PROCEDURE DETAILS: Spectral properties (absorbance, fluorescence, quantum yield) of sulfonated BODIPY dyes 6, Table 1
- Assay type: physicochemical
- ASSAY CONDITIONS: solvent MeOH
Items are presented alongside their recorded fwhm.
PROPERTY MEASURED: fwhm (nm)

- Cc1cc(C)n2c1C=C1C(=O)N(C)C(c3ccc(I)cc3)=[N+]1[B-]2(F)F: 54
- Cc1cc(C)n2c1C=C1C(=O)N(C)C(c3ccccc3)=[N+]1[B-]2(F)F: 46
- Cc1cc(C)n2c1C=C1C(=O)N(C)C(c3ccc([N+](=O)[O-])cc3)=[N+]1[B-]2(F)F: 120
- CC1=[N+]2C(=Cc3c(C)cc(C)n3[B-]2(F)F)C(=O)N1C: 19
- Cc1c(S(=O)(=O)O)c(C)n2c1C=C1C(=O)N(C)C(c3ccc(C#CCCCC(=O)O)cc3)=[N+]1[B-]2(F)F: 58
- Cc1c(S(=O)(=O)[O-])c(C)n2c1C=C1C(=O)N(C)C(c3ccc(I)cc3)=[N+]1[B-]2(F)F.[Na+]: 53
- COc1ccc(C2=[N+]3C(=Cc4c(C)cc(C)n4[B-]3(F)F)C(=O)N2C)cc1: 38
- Cc1cc(C)n2c1C=C1C(=O)NC(c3ccccc3)=[N+]1[B-]2(F)F: 48

* * *

- PROCEDURE DETAILS: Spectral Properties of 9 in CH2Cl2, Table 3
- Format: physicochemical
Could you label it 1 if measured fwhm (full width at half-maximum height) is 50 nm or higher, and -1 otherwise?

- CC(Nc1c2ccc(=[N+]3CCCCC3)cc-2oc2cc(N3CCCCC3)ccc12)C(=O)OC(C)(C)C.O=S(=O)([O-])C(F)(F)F (stereo not drawn) [9d]: 1
- COC(=O)C1CCN(c2ccc3c(N4CCCCC4)c4ccc(=[N+]5CCC(C(=O)OC)CC5)cc-4oc3c2)CC1.O=S(=O)([O-])C(F)(F)F (stereo not drawn) [9f]: -1
- O=S(=O)([O-])C(F)(F)F.c1ccc(CSc2c3ccc(=[N+]4CCCCC4)cc-3oc3cc(N4CCCCC4)ccc23)cc1 [9e]: -1
- O=S(=O)([O-])C(F)(F)F.c1cc2c(N3CCCCC3)c3ccc(=[N+]4CCCCC4)cc-3oc2cc1N1CCCCC1 [9a]: 1
- CCN(CC)c1c2ccc(=[N+]3CCCCC3)cc-2oc2cc(N3CCCCC3)ccc12.O=S(=O)([O-])C(F)(F)F [9b]: -1
- CCC(C)Nc1c2ccc(=[N+]3CCCCC3)cc-2oc2cc(N3CCCCC3)ccc12.O=S(=O)([O-])C(F)(F)F (racemic) [9c]: 1
